Target: UniProt:Q9HAW8
Sequence (Q9HAW8 26-530): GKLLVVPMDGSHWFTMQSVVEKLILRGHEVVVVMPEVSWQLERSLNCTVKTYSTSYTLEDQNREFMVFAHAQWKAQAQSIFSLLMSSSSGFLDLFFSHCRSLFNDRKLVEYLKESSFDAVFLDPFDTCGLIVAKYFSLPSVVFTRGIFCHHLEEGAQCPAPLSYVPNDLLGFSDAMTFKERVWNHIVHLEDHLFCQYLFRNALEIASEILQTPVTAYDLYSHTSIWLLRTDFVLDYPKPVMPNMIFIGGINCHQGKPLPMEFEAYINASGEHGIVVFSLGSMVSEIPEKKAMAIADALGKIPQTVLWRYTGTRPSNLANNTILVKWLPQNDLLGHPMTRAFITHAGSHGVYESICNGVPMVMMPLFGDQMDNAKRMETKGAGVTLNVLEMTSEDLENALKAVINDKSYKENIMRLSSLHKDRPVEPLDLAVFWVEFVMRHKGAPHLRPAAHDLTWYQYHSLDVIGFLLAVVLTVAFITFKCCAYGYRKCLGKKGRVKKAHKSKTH
Conditions: glucuronidation; racemic OHWars
Result Type: Km (µM)

[
  {
    "Compound": "CC(=O)CC(c1ccccc1)c1c(O)c2ccc(O)cc2oc1=O (stereo not drawn) [7-OH-WAR, 7-hydroxywarfarin]",
    "Unit Annotation": "µM",
    "Recorded Number": 220
  },
  {
    "Compound": "CC(=O)CC(c1ccccc1)c1c(O)c2cc(O)ccc2oc1=O (stereo not drawn) [6-OH-WAR, 6-hydroxywarfarin]",
    "Unit Annotation": "µM",
    "Recorded Number": 399
  },
  {
    "Compound": "CC(=O)CC(c1ccccc1)c1c(O)c2cccc(O)c2oc1=O (stereo not drawn) [8-OH-WAR, 8-hydroxywarfarin]",
    "Unit Annotation": "µM",
    "Recorded Number": 383
  }
]
